target: CDK5 CDK5R1 p25 (human) (UniProt Q00535+Q15078); assay: radiometric filter-binding kinase assay, Kinase HotSpot; settings: compound 0.5 µM; ATP 10 µM
Sequence (Q00535 whole entry, looked up): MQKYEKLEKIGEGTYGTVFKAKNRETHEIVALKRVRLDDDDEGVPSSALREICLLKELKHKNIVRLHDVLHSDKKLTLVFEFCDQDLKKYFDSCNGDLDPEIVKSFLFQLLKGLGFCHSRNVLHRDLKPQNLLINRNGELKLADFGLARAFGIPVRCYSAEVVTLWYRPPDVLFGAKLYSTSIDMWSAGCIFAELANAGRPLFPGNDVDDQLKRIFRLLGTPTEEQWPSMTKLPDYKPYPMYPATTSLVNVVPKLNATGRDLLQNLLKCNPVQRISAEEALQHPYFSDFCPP
Sequence (Q15078 whole entry, looked up): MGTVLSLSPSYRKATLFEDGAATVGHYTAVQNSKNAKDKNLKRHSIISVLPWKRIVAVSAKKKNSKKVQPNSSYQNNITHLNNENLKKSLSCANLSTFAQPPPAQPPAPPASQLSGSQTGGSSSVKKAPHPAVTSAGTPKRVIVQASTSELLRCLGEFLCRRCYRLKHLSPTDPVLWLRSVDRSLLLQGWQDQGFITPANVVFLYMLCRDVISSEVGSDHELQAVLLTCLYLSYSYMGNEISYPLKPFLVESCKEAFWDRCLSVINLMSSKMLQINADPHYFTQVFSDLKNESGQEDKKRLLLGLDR
property_label: residual activity (%)
One number for each entry, in %.

Use the examples below as a reference point.
                                smiles_repr  uom  measured_value
0  Cn1c2ccccc2c2c3c(c4c5ccccc5n(CCC#N)c4c21)CNC3=O    %            21.3
1  N#Cc1c[nH]c2c[nH]/c(=N\Cc3cccnc3)cc2/c1=N\c1ccc(F)c(Cl)c1    %            78.3
2            Cc1nc(-c2ccccc2)c(-c2ccncc2)o1    %              97
3  O=C1C(Cl)=C(N2C(=O)CCC2=O)C(=O)c2ccccc21    %            87.3
4  CS(=O)(=O)CCNCc1ccc(-c2ccc3ncnc(Nc4ccc(OCc5cccc(F)c5)c(Cl)c4)c3c2)o1    %            90.4
5  Cc1cn(-c2cc(NC(=O)c3ccc(C)c(Nc4nccc(-c5cccnc5)n4)c3)cc(C(F)(F)F)c2)cn1    %            91.7
6        CC(C)(C)c1cc(C=C(C#N)C#N)cc(Br)c1O    %            98.2
7           Ic1cccc(CSc2nnc(-c3ccncc3)o2)c1    %            90.5

For each entry beneath this line, provide reported residual activity.
1. CN(C)CCCn1cc(C2=C(c3c[nH]c4ccccc34)C(=O)NC2=O)c2ccccc21
2. COc1ccc2c(c1)/C(=C/c1cnc[nH]1)C(O)=N2

Ans:
80.2
4.52

Q: Form: Entry = COc1ccc(C(=O)Nc2sc3c(c2C(N)=O)CCCC3)cc1OC | System = CDK5 CDK5R1 p25 (human) (UniProt Q00535+Q15078) | residual activity = ____
Ans: 94.2

---

target: UniProt P49137; test: radiometric filter-binding kinase assay, Kinase HotSpot; conditions: compound 0.5 µM; ATP 10 µM
Sequence (P49137 whole entry, looked up): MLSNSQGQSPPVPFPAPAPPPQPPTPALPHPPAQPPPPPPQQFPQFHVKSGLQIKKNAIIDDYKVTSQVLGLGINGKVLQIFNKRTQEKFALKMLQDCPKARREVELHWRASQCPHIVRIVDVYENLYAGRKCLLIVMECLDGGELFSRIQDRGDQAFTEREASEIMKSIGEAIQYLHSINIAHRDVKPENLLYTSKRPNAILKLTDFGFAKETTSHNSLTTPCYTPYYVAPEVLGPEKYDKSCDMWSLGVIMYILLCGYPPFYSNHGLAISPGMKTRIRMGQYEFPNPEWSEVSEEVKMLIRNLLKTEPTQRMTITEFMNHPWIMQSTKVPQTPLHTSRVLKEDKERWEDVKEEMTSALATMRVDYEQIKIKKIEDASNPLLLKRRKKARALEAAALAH
Kindly supply the reported residual activity values for the records listed here.
Give bare numbers, in %.

>>> print(df.to_string())
                                smiles_repr  measured_value
0  CS(=O)(=O)CCNCc1ccc(-c2ccc3ncnc(Nc4ccc(OCc5cccc(F)c5)c(Cl)c4)c3c2)o1            94.7
1       CCCCc1c(-c2ccc(OC)cc2)[nH]c2nccnc12            90.2
2  C[C@@H]1CCN(C(=O)CC#N)C[C@@H]1N(C)c1ncnc2[nH]ccc12            96.6
3  O=C1Nc2ccc(Br)cc2/C1=C\c1cc2c([nH]1)CCCC2            97.5

For each of the compounds below, note its residual activity.
1. COc1ccc(Cl)cc1NC(=O)Nc1cc(C)nc2ccccc12
2. COc1ccc(C(=O)Nc2sc3c(c2C(N)=O)CCCC3)cc1OC
3. O=C1C(Cl)=C(N2C(=O)CCC2=O)C(=O)c2ccccc21
4. Ic1cccc(CSc2nnc(-c3ccncc3)o2)c1
5. c1ccc2c(-c3ccncc3)c[nH]c2c1

Ans:
[109, 104, 105, 93.5, 101]
